Measured pKd of individual entries
target: HLA-B*57:01
experimental_protocol: IEDB peptide-MHC binding, purified MHC/competitive/fluorescence; filed as Kd, often an IC50 or EC50 that approximates it; bounds were set here for any values at or beyond the usual limits of such assays
study_conditions: source organism: Entamoeba histolytica HM-1:IMSS
pKd: −log10 of the molar value.

# monomer_sequence, endpoint_value
measured = [
    ("RTFDRFFEE", "≤ 4.70"),
]

q: // pKd lookup, key: "EVIRATYPS"
a: ≤ 4.70

###

Measured Kd of individual entries
target: HLA-A*31:01
experimental_protocol: IEDB peptide-MHC binding, purified MHC/competitive/radioactivity; filed as Kd, often an IC50 or EC50 that approximates it; bounds were set here for any values at or beyond the usual limits of such assays
study_conditions: source organism: Dengue virus 2 Jamaica/1409/1983
# output: bare number, implied unit nM

# monomer_sequence, Kd / nM
rows = [
    ("IAVSMANIFR", 37.4),
]

--- query ---
q: // Kd lookup, key: "KKSKAINVLR"
a: 163

###

Measured Kd of individual entries
target: HLA-A*30:02
experimental_protocol: IEDB peptide-MHC binding, purified MHC/competitive/radioactivity; filed as Kd, often an IC50 or EC50 that approximates it; bounds were set here for any values at or beyond the usual limits of such assays
study_conditions: source organism: Dengue virus 3 Martinique/1243/1999
# output: bare number, implied unit µM

q: // Kd lookup, key: "AYAQMWSLMY"
a: 0.169

q: Try this sequence next: "DQNYVCKHTY"
a: 8.02

q: Try this sequence next: "VTTWENVPY"
a: 0.0109

###

target: HLA-A*01:01
experimental_protocol: IEDB peptide-MHC binding, purified MHC/competitive/radioactivity; filed as Kd, often an IC50 or EC50 that approximates it; bounds were set here for any values at or beyond the usual limits of such assays
study_conditions: source organism: Dengue virus 1 Brazil/97-11/1997
Measured Kd of individual entries
# output: bare number, implied unit nM

# monomer_sequence, Kd (nM)
measured = [
    ("MTTEDMLSV", 5060),
]

--- query ---
q: Give the reported Kd for "VSSWEEVPY" (system: HLA-A*01:01).
a: 269

###

target: HLA-A*68:23
experimental_protocol: IEDB peptide-MHC binding, purified MHC/competitive/fluorescence; filed as Kd, often an IC50 or EC50 that approximates it; bounds were set here for any values at or beyond the usual limits of such assays
study_conditions: source organism: Influenza A virus H3N2
test_readout: pKd
Please express pKd as -log10 of the molar concentration.

q: // pKd lookup, key: "FSFGGFTFK"
a: 7.66

###

target: HLA-A*02:01
experimental_protocol: IEDB peptide-MHC binding, purified MHC/competitive/radioactivity; filed as Kd, often an IC50 or EC50 that approximates it; bounds were set here for any values at or beyond the usual limits of such assays
study_conditions: source organism: HIV-1 M:B_MN
test_readout: Kd (nM)
# output: bare number, implied unit nM

# monomer_sequence, output_unit, Kd
measured = [
    ("FIMIVGGLV", "nM", 382),
]

--- query ---
q: // Kd lookup, key: "RVIEVLQRA"
a: 25

###

target: HLA-B*37:01
experimental_protocol: IEDB peptide-MHC binding, purified MHC/competitive/fluorescence; bounds were set here for any values at or beyond the usual limits of such assays
study_conditions: source organism: Homo sapiens
Measured IC50 of individual entries

Below: 2 sequences and their reported IC50.
# monomer_sequence, IC50
data = [
    ("RQSSGSSSSGF", "0.317 µM"),
    ("ELFARSSDPR", "≥ 20 µM"),
]

--- query ---
q: // IC50 lookup, key: "LVTMGTGTFGR"
a: ≥ 20 µM

###

target: HLA-B*51:01
experimental_protocol: IEDB peptide-MHC binding, purified MHC/direct/fluorescence; filed as Kd, often an IC50 or EC50 that approximates it; bounds were set here for any values at or beyond the usual limits of such assays
study_conditions: source organism: dengue virus type 2
test_readout: Kd

q: // Kd lookup, key: "NPITLTAAL"
a: ≥ 20 µM

###

target: HLA-A*69:01
experimental_protocol: IEDB peptide-MHC binding, purified MHC/direct/fluorescence; filed as Kd, often an IC50 or EC50 that approximates it; bounds were set here for any values at or beyond the usual limits of such assays
study_conditions: source organism: Rickettsia sibirica
pKd: −log10 of the molar value.
test_readout: pKd

q: // pKd lookup, key: "AIKPITDQF"
a: ≤ 4.70

###

target: HLA-A*26:01
experimental_protocol: IEDB peptide-MHC binding, purified MHC/competitive/fluorescence; filed as Kd, often an IC50 or EC50 that approximates it; bounds were set here for any values at or beyond the usual limits of such assays
study_conditions: source organism: Homo sapiens
test_readout: Kd

Below: 2 sequences and their reported Kd.
# monomer_sequence, Kd
measured = [
    ("SSDLRSWTF", "≥ 20 µM"),
    ("WLGHPFTPV", "≥ 20 µM"),
]

--- query ---
q: // Kd lookup, key: "KMFTYLMES"
a: ≥ 20 µM

###

target: HLA-B*15:01
experimental_protocol: IEDB peptide-MHC binding, purified MHC/competitive/radioactivity; filed as Kd, often an IC50 or EC50 that approximates it; bounds were set here for any values at or beyond the usual limits of such assays
study_conditions: source organism: Vaccinia virus WR
With a cut-off of 300 nM, any Kd strictly below it is called class 1; any Kd meeting it or above is called class 0.

q: Threshold test, Kd < 300 nM: "FLLSLVEFF"
a: class 1

q: Try this sequence next: "LEADYVESM"
a: class 0

q: Try this sequence next: "HINKLFSVF"
a: class 1

q: Try this sequence next: "AILSLNLRI"
a: class 1

q: Try this sequence next: "FMAYTTSHI"
a: class 1

###

target: HLA-A*01:01
experimental_protocol: IEDB peptide-MHC binding, purified MHC/direct/fluorescence; filed as Kd, often an IC50 or EC50 that approximates it; bounds were set here for any values at or beyond the usual limits of such assays
study_conditions: source organism: Rickettsia sibirica
pKd: −log10 of the molar value.
test_readout: pKd

q: Give the reported pKd for "AIKPITDQF" (system: HLA-A*01:01).
a: ≤ 4.70

###

target: HLA-B*27:05
experimental_protocol: IEDB peptide-MHC binding, purified MHC/direct/fluorescence; filed as Kd, often an IC50 or EC50 that approximates it; bounds were set here for any values at or beyond the usual limits of such assays
study_conditions: source organism: Vibrio parahaemolyticus
test_readout: Kd

q: // Kd lookup, key: "ILRPLGIEY"
a: ≥ 20 µM

###

target: HLA-B*58:01
experimental_protocol: IEDB peptide-MHC binding, purified MHC/competitive/fluorescence; filed as Kd, often an IC50 or EC50 that approximates it; bounds were set here for any values at or beyond the usual limits of such assays
study_conditions: source organism: Zaire ebolavirus
test_readout: Kd

q: // Kd lookup, key: "ESLLHQASW"
a: 2.1 nM

###

target: HLA-B*07:02
experimental_protocol: IEDB peptide-MHC binding, purified MHC/direct/fluorescence; filed as Kd, often an IC50 or EC50 that approximates it; bounds were set here for any values at or beyond the usual limits of such assays
study_conditions: source organism: Ebola virus - Gabon (1994-1997)
test_readout: Kd

q: // Kd lookup, key: "AKATGRYNL"
a: ≥ 20 µM

###

target: HLA-A*11:01
experimental_protocol: IEDB peptide-MHC binding, purified MHC/competitive/radioactivity; filed as Kd, often an IC50 or EC50 that approximates it; bounds were set here for any values at or beyond the usual limits of such assays
study_conditions: source organism: Mammarenavirus brazilense
test_readout: Kd (µM)
# output: bare number, implied unit µM

q: // Kd lookup, key: "SCMVNHSTYY"
a: 16.7

###

target: HLA-B*58:01
experimental_protocol: IEDB peptide-MHC binding, purified MHC/direct/fluorescence; filed as Kd, often an IC50 or EC50 that approximates it; bounds were set here for any values at or beyond the usual limits of such assays
study_conditions: source organism: Influenza A virus (A/finch/Canada/NS1301/2001(H3N8))
test_readout: pKd
Please express pKd as -log10 of the molar concentration.

q: // pKd lookup, key: "GTFEFTSFF"
a: 6.30

###

Measured Kd of individual entries
target: HLA-A*26:01
experimental_protocol: IEDB peptide-MHC binding, purified MHC/competitive/radioactivity; filed as Kd, often an IC50 or EC50 that approximates it; bounds were set here for any values at or beyond the usual limits of such assays
study_conditions: source organism: SARS coronavirus Tor2
# output: bare number, implied unit µM

Below: 4 sequences and their reported Kd.
# monomer_sequence, target, Kd (µM)
records = [
    ("KTIVESCGNY", "HLA-A*26:01", 1.35),
    ("FTSCELYHY", "HLA-A*26:01", 0.811),
    ("IDATSTGNY", "HLA-A*26:01", 1.05),
    ("VMMSAPPAEY", "HLA-A*26:01", 9.02),
]

q: Give the reported Kd for "LYIIKLVFLW" (system: HLA-A*26:01).
a: 1.17

q: Try this sequence next: "ELSPRWYFY"
a: 0.0157

q: Try this sequence next: "YTTTIKPVSY"
a: 0.878

Provenance of the data: the Immune Epitope Database (IEDB)
